test system: Plasmodium berghei; assay: Antimalarial activity in Plasmodium berghei infected mice (Mus musculus) after subcutaneous 640 mg/kg dose; assay type: functional
property label: No. of cured mice

1. CN(C)CCC/N=C1\CC(c2ccc(Cl)cc2Cl)Cc2nc3ccc(Cl)cc3c(O)c21 (centres undefined) | 5
2. CCN(CC)CC(C)(C)C/N=C1\CC(c2ccc(Cl)cc2Cl)Cc2nc3ccc(Cl)cc3c(O)c21 (centres undefined) | 5
3. O=C1CC(c2ccc(Cl)c(Cl)c2)Cc2c1c(=O)c1ccccc1n2O (centres undefined) | 2
4. O=C1CC(c2ccccc2)Cc2c1c(=O)c1cc(Cl)ccc1n2O (centres undefined) | 3
5. CCN(CC)CC/N=C1\CC(c2ccc(Cl)cc2Cl)Cc2nc3ccc(Cl)cc3c(O)c21 (centres undefined) | 5
6. CCN(CC)CC(C)(C)C/N=C1\CC(c2ccc(C(F)(F)F)cc2)Cc2c1c(=O)c1cc(Cl)ccc1n2O (centres undefined) | 3
7. CN(C)CCC/N=C1\CC(c2ccc(N(C)C)cc2)Cc2c1c(=O)c1cc(Cl)ccc1n2O (centres undefined) | 5
8. CN(C)CCC/N=C1\CC(c2ccc(C3CCCCC3)cc2)Cc2c1c(=O)c1cc(Cl)ccc1n2O (centres undefined) | 5
9. O=C1CC(c2ccc(Cl)cc2Cl)Cc2nc3ccc(Cl)cc3c(O)c21 (centres undefined) | 5

---

system: Plasmodium berghei; assay: Antimalarial activity was measured against mice (Mus musculus) infected with Plasmodium berghei by subcutaneous administration of 640 mg/kg dose; assay type: organism-based; set-up: dose 640 mg/kg, route subcutaneous; conditions: in vivo, sc
Recorded No. of toxic deaths values for a group of compounds are listed next.
property label: No. of toxic deaths

1) COc1ccccc1C1C/C(=N\CCCN(C)C)c2c(n(O)c3ccc(Cl)cc3c2=O)C1 (centres undefined) | 5
2) CCn1c2c(c(=O)c3cc(Cl)ccc31)C(=O)CC(c1ccc(C(F)(F)F)cc1)C2 (centres undefined) | 1
3) COc1cc(C2C/C(=N\CCCN3CCCCC3)c3c(n(O)c4ccc(Cl)cc4c3=O)C2)cc(OC)c1OC (centres undefined) | 1
4) CN(C)CCC/N=C1\CC(c2ccc(C(F)(F)F)cc2)Cc2c1c(=O)c1cc(Cl)ccc1n2O (centres undefined) | 5
5) CCN(CC)CCCC/N=C1\CC(c2ccc(C(F)(F)F)cc2)Cc2c1c(=O)c1cc(Cl)ccc1n2O (centres undefined) | 4
6) CCCCCCC/N=C1\CC(c2ccc(C(F)(F)F)cc2)Cc2c1c(=O)c1cc(Cl)ccc1n2O (centres undefined) | 1
7) CN(C)CCC/N=C1\CC(c2ccc(Cl)cc2Cl)Cc2nc3c(Cl)cccc3c(O)c21 (centres undefined) | 5
8) O=c1c2c(n(O)c3ccc(Cl)cc13)CC(c1cccc(C(F)(F)F)c1)C/C2=N\CCCCN1CCCC1 (centres undefined) | 5
9) O=C1CC(c2ccc(C(F)(F)F)cc2)Cc2c1c(=O)c1cc(Cl)c(F)cc1n2O (centres undefined) | 5
10) CN(C)CCC/N=C1\CC(c2ccc(C(F)(F)F)cc2)Cc2nc3ccc(F)cc3c(O)c21 (centres undefined) | 5
11) CCN(CC)CC/N=C1\CC(c2ccc(C(F)(F)F)cc2)Cc2c1c(=O)c1cc(Cl)ccc1n2O (centres undefined) | 2
12) O=C1CC(c2ccc(C(F)(F)F)cc2)Cc2c1c(=O)c1cc(Cl)ccc1n2Cc1ccccc1 (centres undefined) | 1
13) O=c1c2c(n(O)c3ccc(Cl)cc13)CC(c1ccc(C(F)(F)F)cc1)C/C2=N\CCCN1CCCC1 (centres undefined) | 4
14) CN(C)CCC/N=C1\CC2(CCCCC2)Cc2nc3ccc(Cl)cc3c(O)c21 | 1

---

test system: Plasmodium berghei; assay: Antimalarial activity in Plasmodium berghei infected mice (Mus musculus) after 320 mg/kg subcutaneous dose; format: functional
Recorded Delta mean survival time values for a group of molecules are listed next.
property label: Delta mean survival time

1. O=C1CC(c2cccc3ccccc23)Cc2c1c(=O)c1cc(Cl)ccc1n2O (centres undefined) | 5.7
2. CCCCCCC/N=C1\CC(c2ccc(C(F)(F)F)cc2)Cc2c1c(=O)c1cc(Cl)ccc1n2O (centres undefined) | 14.7
3. CCN(CC)CCCCCCC/N=C1\CC(c2ccc(Cl)cc2Cl)Cc2nc3ccc(Cl)cc3c(O)c21 (centres undefined) | 3.7
4. CN(C)c1ccc(C2CC(=O)c3c(n(O)c4ccc(Cl)cc4c3=O)C2)cc1 (centres undefined) | 6.8
5. O=C1CC(c2cccc(C(F)(F)F)c2)Cc2nc3ccc(Cl)cc3c(O)c21 (centres undefined) | 3.3
6. CC1C(=O)c2c(nc3ccc(Cl)cc3c2O)CC1c1ccc(Cl)c(C(F)(F)F)c1 (centres undefined) | 5
7. O=C1CC(c2cccc(C(F)(F)F)c2)Cc2c1c(=O)c1cc(Cl)ccc1n2[O-].[Na+] (centres undefined) | 16
8. O=C1CC(c2c(Cl)cccc2Cl)Cc2c1c(=O)c1cc(Cl)ccc1n2O (centres undefined) | 23.9
9. CCN(CC)CCO/N=C1\CC(c2ccc(Cl)c(Cl)c2)Cc2c1c(=O)c1cc(Cl)ccc1n2O (centres undefined) | 3.7

---

tested on: Plasmodium berghei; experiment: Antimalarial activity in Plasmodium berghei infected mice (Mus musculus) after subcutaneous 320 mg/kg dose; type: functional
Recorded No. of cured mice values for a group of compounds are listed next.
property label: No. of cured mice

1. CN(C)CCC/N=C1\CC(c2ccc(C(F)(F)F)cc2)Cc2c1c(=O)c1cc(Cl)ccc1n2O (configuration not stated) | 2
2. O=C1CC(c2ccc(C(F)(F)F)cc2)Cc2nc3ccc(Br)cc3c(O)c21 (configuration not stated) | 3
3. O=C1CC(c2ccc(C(F)(F)F)cc2)Cc2nc3ccccc3c(O)c21 (configuration not stated) | 5
4. CCN(CCO)CCC/N=C1\CC(c2ccc(Cl)c(Cl)c2)Cc2c1c(=O)c1cc(Cl)ccc1n2O (configuration not stated) | 5
5. CCN(CC)CC/N=C1\CC(c2ccc(Cl)cc2Cl)Cc2nc3ccc(Cl)cc3c(O)c21 (configuration not stated) | 5
6. CCN(CC)CCCCCCC/N=C1\CC(c2ccc(Cl)cc2Cl)Cc2nc3ccc(Cl)cc3c(O)c21 (configuration not stated) | 4
7. O=c1c2c(n(O)c3ccc(Cl)cc13)CC(c1ccc(C(F)(F)F)cc1)C/C2=N\CCCN1CCCC1 (configuration not stated) | 3
8. O=C1CC(c2ccc(Cl)cc2Cl)Cc2c1c(=O)c1cc(Cl)ccc1n2O (configuration not stated) | 5
9. CCN(CC)CC(C)(C)C/N=C1\CC(c2ccc(Cl)cc2Cl)Cc2nc3ccc(Cl)cc3c(O)c21 (configuration not stated) | 5
10. CN(C)CCC/N=C1\CC(c2ccccc2C(F)(F)F)Cc2c1c(=O)c1cc(Cl)ccc1n2O (configuration not stated) | 5
11. Oc1c2c(nc3ccc(Cl)cc13)CC(c1ccc(Cl)cc1Cl)C/C2=N\CCCN1CCCC1 (configuration not stated) | 5
12. O=C1CC(c2cccc(C(F)(F)F)c2)Cc2c1c(=O)c1cc(Cl)ccc1n2O (configuration not stated) | 5
13. CN(C)CCCCCCC/N=C1\CC(c2ccc(Cl)c(Cl)c2)Cc2c1c(=O)c1cc(Cl)ccc1n2O (configuration not stated) | 5
14. CN(C)CCC/N=C1\CC(c2ccc(N(C)C)cc2)Cc2c1c(=O)c1cc(Cl)ccc1n2O (configuration not stated) | 3
15. O=C1CC(c2cccc(C(F)(F)F)c2)Cc2c1c(=O)c1cc(Cl)ccc1n2[O-].[Na+] (configuration not stated) | 3
16. O=C1CC(c2cccc3ccccc23)Cc2c1c(=O)c1cc(Cl)ccc1n2O (configuration not stated) | 2
17. CN1CCN(CCC/N=C2\CC(c3ccc(Cl)c(Cl)c3)Cc3c2c(=O)c2cc(Cl)ccc2n3O)CC1 (configuration not stated) | 5
18. O=C1CC(c2cccc(Br)c2)Cc2c1c(=O)c1cc(Cl)ccc1n2O (configuration not stated) | 1
19. O=c1c2c(n(O)c3ccc(Cl)cc13)CC(c1cccc(C(F)(F)F)c1)C/C2=N\Cc1ccc(Cl)c(Cl)c1 (configuration not stated) | 2
20. CN(C)CCC/N=C1\CC(c2cccc3ccccc23)Cc2c1c(=O)c1cc(Cl)ccc1n2O (configuration not stated) | 4
21. C=CCNCC/N=C1\CC(c2cccc(C(F)(F)F)c2)Cc2c1c(=O)c1cc(Cl)ccc1n2O (configuration not stated) | 5
22. CN(C)CCC/N=C1\CC(c2ccc(C3CCCCC3)cc2)Cc2nc3ccc(Cl)cc3c(O)c21 (configuration not stated) | 5
23. CCCC/N=C1\CC(c2ccc(C(F)(F)F)cc2)Cc2c1c(=O)c1cc(Cl)ccc1n2O (configuration not stated) | 5
24. CN(C)CCC/N=C1\CC(c2ccccc2Cl)Cc2nc3ccc(Cl)cc3c(O)c21 (configuration not stated) | 5
25. CN(C)CCC/N=C1\CC(c2cccc(C(F)(F)F)c2)Cc2nc3ccc(Cl)cc3c(O)c21 (configuration not stated) | 5
26. CN(C)CCC/N=C1\CC(c2ccc(Cl)c(Cl)c2)Cc2c1c(=O)c1cc(Cl)ccc1n2O (configuration not stated) | 5
27. CCC1/C(=N\CCCN(C)C)c2c(nc3ccc(Cl)cc3c2O)CC1c1ccc(C(F)(F)F)cc1 (configuration not stated) | 2
28. O=C1CC(c2ccc(Cl)c(Cl)c2)Cc2c1c(=O)c1ccccc1n2O (configuration not stated) | 1
29. CC1C(=O)c2c(n(O)c3ccc(Cl)cc3c2=O)CC1c1ccc(C(F)(F)F)cc1 (configuration not stated) | 5
30. CCN(CC)CC/N=C1\CC(c2ccc(Cl)c(Cl)c2)Cc2nc3ccc(Cl)cc3c(O)c21 (configuration not stated) | 3
31. CCN(CC)CCCC(C)/N=C1\CC(c2ccc(Cl)c(Cl)c2)Cc2c1c(=O)c1cc(Cl)ccc1n2O (configuration not stated) | 5
32. CCCCCCC/N=C1\CC(c2cccc(C(F)(F)F)c2)Cc2c1c(=O)c1cc(Cl)ccc1n2O (configuration not stated) | 5
33. CCN(CC)CCCC/N=C1\CC(c2ccc(C(F)(F)F)cc2)Cc2c1c(=O)c1cc(Cl)ccc1n2O (configuration not stated) | 4
34. O=c1c2c(n(O)c3ccc(Cl)cc13)CC(c1ccc(Cl)c(Cl)c1)C/C2=N\CCCNCCO (configuration not stated) | 4
35. CCN(CC)CC/N=C1\CC(c2ccc(Cl)c(Cl)c2)Cc2c1c(=O)c1cc(Cl)ccc1n2O (configuration not stated) | 5
36. CN(C)CCC/N=C1\CC(c2ccc(Cl)c(C(F)(F)F)c2)Cc2nc3ccc(Cl)cc3c(O)c21 (configuration not stated) | 5
37. CC(C/N=C1\CC(c2cccc(C(F)(F)F)c2)Cc2c1c(=O)c1cc(Cl)ccc1n2O)N(C)C (configuration not stated) | 5
